Reference source: patent US10479784B2

Target: full-length ATR (Homo sapiens (Human), UniProt Q13535)
Sequence (Q13535 whole entry): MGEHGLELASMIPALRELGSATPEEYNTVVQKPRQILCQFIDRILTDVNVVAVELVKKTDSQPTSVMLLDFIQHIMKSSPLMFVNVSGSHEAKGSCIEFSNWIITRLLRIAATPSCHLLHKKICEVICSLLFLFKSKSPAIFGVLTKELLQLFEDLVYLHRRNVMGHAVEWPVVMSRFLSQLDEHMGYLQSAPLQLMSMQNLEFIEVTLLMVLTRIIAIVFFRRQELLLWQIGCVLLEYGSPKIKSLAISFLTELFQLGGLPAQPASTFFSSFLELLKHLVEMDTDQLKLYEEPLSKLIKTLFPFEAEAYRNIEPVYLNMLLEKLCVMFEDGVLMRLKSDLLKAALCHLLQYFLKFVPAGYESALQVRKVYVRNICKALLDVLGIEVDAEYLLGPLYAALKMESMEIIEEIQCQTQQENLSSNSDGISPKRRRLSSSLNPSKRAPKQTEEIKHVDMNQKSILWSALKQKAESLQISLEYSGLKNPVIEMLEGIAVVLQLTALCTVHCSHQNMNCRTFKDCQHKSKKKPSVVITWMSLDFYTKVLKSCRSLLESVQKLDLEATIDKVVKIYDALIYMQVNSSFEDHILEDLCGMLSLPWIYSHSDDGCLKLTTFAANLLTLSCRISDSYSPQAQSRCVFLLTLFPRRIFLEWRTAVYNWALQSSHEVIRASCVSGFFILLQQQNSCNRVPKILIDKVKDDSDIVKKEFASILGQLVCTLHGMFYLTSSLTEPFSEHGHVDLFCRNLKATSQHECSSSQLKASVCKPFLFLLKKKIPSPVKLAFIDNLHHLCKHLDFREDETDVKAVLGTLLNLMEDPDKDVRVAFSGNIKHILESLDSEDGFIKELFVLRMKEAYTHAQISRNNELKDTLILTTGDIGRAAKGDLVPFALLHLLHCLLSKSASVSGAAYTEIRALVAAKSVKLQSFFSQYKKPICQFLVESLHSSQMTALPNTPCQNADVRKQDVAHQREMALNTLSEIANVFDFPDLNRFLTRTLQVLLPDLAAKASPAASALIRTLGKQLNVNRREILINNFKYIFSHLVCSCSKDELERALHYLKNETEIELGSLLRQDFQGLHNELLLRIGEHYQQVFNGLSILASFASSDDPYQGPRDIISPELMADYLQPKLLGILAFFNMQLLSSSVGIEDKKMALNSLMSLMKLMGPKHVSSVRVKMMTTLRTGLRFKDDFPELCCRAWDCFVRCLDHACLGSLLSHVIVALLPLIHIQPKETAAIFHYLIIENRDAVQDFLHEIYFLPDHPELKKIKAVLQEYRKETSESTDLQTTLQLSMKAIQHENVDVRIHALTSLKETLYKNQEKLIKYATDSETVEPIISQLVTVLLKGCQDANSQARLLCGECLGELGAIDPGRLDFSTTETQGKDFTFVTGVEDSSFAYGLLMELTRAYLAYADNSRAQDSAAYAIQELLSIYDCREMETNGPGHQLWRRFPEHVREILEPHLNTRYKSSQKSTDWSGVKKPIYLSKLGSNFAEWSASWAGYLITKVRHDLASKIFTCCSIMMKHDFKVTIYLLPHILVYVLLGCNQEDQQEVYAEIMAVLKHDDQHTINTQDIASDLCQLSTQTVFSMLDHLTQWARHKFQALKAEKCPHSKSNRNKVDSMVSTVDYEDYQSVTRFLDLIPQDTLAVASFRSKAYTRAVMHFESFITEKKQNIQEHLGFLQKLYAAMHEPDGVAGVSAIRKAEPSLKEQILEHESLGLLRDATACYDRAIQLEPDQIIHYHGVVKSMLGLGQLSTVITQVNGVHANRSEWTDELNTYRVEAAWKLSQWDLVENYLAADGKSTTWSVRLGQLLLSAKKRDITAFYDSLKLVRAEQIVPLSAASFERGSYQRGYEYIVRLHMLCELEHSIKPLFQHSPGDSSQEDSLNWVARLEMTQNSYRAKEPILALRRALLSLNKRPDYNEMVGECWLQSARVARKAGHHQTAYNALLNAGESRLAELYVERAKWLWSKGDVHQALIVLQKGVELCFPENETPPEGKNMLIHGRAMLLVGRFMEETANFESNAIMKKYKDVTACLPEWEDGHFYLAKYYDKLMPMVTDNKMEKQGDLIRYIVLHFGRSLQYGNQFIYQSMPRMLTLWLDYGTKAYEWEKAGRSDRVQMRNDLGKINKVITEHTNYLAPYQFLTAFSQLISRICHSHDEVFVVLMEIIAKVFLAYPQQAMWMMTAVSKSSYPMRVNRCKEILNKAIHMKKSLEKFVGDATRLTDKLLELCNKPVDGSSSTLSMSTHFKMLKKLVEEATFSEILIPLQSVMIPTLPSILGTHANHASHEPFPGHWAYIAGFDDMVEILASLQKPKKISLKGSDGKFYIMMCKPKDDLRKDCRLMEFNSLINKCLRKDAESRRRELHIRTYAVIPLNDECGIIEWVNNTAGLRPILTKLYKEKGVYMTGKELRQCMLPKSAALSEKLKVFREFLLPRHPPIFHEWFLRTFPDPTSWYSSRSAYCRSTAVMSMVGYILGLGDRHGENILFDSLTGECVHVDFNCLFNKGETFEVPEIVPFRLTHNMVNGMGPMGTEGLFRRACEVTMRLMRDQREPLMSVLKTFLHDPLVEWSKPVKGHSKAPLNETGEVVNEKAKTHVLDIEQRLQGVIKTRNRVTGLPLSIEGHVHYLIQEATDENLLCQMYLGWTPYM
Assay: ATR Inhibition Assay (radioactive-phosphate incorporation)
Type: biochemical
Settings: read-out: ATR Ki
Measured Ki accompanies every entry in the list below.

The following compounds have reported results that may help.
Nc1ncc(-c2ccc(C(=O)N3CCCNCC3)cc2)nc1C(=O)Nc1ccc2c(c1)NNC2 | 10 to 100 nM
Nc1ncc(-c2ccccc2-c2cnco2)nc1-c1nnc(-c2ccccc2)o1 | 100 to 5000 nM
CNCc1ccc(-c2nnc(-c3nc(-c4ccc(S(=O)(=O)C(C)C)cc4)cnc3N)o2)s1 | ≤ 10 nM
CN(C)C(=O)c1ccc(-c2cnc(N)c(-c3nnc(Nc4cccc(Cl)c4)o3)n2)cc1 | 10 to 100 nM

Next up:
Which Ki is reported for this compound? CN(C)C(=O)c1ccc(-c2cnc(N)c(-c3nnc(-c4ccnc(N)c4)o3)n2)cc1
10 to 100 nM
